This collection of values is drawn from paper PMC10247784.

# Tested target: human TAS2R1 (Homo sapiens)
# Construct: expressed in transfected cells; host or cells: HEK293T-Gα16gust44
# Sequence (Q9NYW7 whole entry): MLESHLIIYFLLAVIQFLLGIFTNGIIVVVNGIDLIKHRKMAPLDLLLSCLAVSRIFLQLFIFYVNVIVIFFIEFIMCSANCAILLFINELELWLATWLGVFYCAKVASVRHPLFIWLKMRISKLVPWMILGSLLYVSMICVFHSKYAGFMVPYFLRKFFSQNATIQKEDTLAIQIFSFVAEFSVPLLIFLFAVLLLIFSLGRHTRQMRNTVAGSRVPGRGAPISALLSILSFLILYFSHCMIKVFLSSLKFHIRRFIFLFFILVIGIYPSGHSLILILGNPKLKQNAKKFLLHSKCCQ
# Assay summary: Calcium imaging assay (FLIPR), HEK293T-Gα16gust44 cells transfected with human TAS2R1
# Format: cell-based
# Assay setup: Time 134.781 s
# Experimental: This set of bile acids was chosen because of their commercial availability in high purities, their diversity within the class of bile acids and their previous detection and quantitation in human blood. Stock solutions were prepared in DMSO. […] Measured data were negative control corrected by subtracting the signal of the mock-transfected cells and exported to Microsoft Excel using the FLIPR software ScreenWorks 4.2. […]
Entries annotated with measured RLU
Just the number in RLU, nothing appended.

Worked cases, answers included:
Form: compound = `C[C@H](CCC(=O)NCCS(=O)(=O)O)[C@H]1CC[C@H]2[C@@H]3[C@H](O)C[C@@H]4C[C@H](O)CC[C@]4(C)[C@H]3C[C@H](O)[C@]12C` ; RLU = 263.266

Form: compound = `C[C@H](CCC(=O)NCC(=O)O)[C@H]1CC[C@H]2[C@@H]3[C@H](O)C[C@@H]4C[C@H](O)CC[C@]4(C)[C@H]3C[C@H](O)[C@]12C` ; RLU = 397.711

Others:
Form: compound = `C[C@H](CCC(=O)O)[C@H]1CC[C@H]2[C@@H]3CC[C@@H]4C[C@H](O)CC[C@]4(C)[C@H]3C[C@H](O)[C@]12C` ; RLU = 362.515

Form: compound = `C[C@H](CCC(=O)NCCS(=O)(=O)O)[C@H]1CC[C@H]2[C@@H]3CC[C@@H]4C[C@H](O)CC[C@]4(C)[C@H]3CC[C@]12C` ; RLU = 393.577
